Overview of recorded log10 of IC50 for various compounds
target: Isocitrate dehydrogenase [NADP] cytoplasmic (Homo sapiens, UniProt O75874, R132H); assay: Inhibition of IDH1 R132H mutant expressed in human HCT-116 cells assessed as effect on intracellular 2-HG level incubated for 48 hrs by LC/MS/MS analysis; type: cell-based
Sequence (O75874 2-414 R132H limits assumed): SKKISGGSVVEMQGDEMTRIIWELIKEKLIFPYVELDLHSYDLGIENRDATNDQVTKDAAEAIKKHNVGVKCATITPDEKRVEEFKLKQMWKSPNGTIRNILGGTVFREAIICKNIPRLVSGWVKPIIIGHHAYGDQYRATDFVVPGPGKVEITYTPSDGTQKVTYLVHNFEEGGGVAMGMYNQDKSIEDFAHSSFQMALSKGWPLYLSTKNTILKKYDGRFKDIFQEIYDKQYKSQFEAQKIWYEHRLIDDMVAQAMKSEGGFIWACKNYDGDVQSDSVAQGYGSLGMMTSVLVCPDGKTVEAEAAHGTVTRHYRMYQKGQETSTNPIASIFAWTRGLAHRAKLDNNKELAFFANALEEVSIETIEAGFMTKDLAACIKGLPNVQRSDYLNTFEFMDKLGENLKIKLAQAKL
Annotation: log10 of IC50, nM basis.

Example cases with answers are listed next.
Ask: Given the entry CC(C)[C@H]1COC(=O)N1c1ccnc(N[C@@H](C)c2cccc3ccccc23)n1 , what log10 of IC50 was observed with Isocitrate dehydrogenase [NADP] cytoplasmic (Homo sapiens, UniProt O75874, R132H)?
Result: 3.04

Ask: Given the entry CC(C)[C@H]1COC(=O)N1c1ccnc(N[C@@H](C)c2ncc(Oc3ccc(F)cc3)cn2)n1 , what log10 of IC50 was observed with Isocitrate dehydrogenase [NADP] cytoplasmic (Homo sapiens, UniProt O75874, R132H)?
Result: 2.30

***
Ask: Given the entry CC(C)[C@H]1COC(=O)N1c1ccnc(N[C@@H](C)c2ncc(Cl)cn2)n1 , what log10 of IC50 was observed with Isocitrate dehydrogenase [NADP] cytoplasmic (Homo sapiens, UniProt O75874, R132H)?
Result: 3.90
